- protocolSummary: TOR pathway GLN3 branch reporter MEP2-GFP changes – S. cerevisiae, multiplex flow cytometry, primary screen (AID 1867);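 note: median GFP channel fluorescence of barcode-gated MEP2-GFP cells measured by flow cytometry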
- testSettings: S. cerevisiae MEP2-GFP strain, 3 h, at 10 µM, stronger effect = higher value, 100% means same as DMSO wells
Inconclusive results are not listed.
Recorded GFP response vs DMSO by entry
assayEndpoint: GFP response vs DMSO (%)

compound=CSCC[C@H](NC(=O)OC(C)(C)C)C(=O)N1CCC(C(=O)N[C@@H](C)C(=O)O)CC1 uom=% measuredresult=105
compound=O=[N+]([O-])c1cccc2cn[nH]c12 uom=% measuredresult=155
compound="C=CCC1(O)C(=O)N2C(=C1C(=O)N1CCOCC1)c1ccccc1CC2(C)C (stereo unspecified)" uom=% measuredresult=108
compound="Cc1ccc(C2CC(c3cccs3)=NN2C(=O)c2ccco2)o1 (stereo unspecified)" uom=% measuredresult=87.6
compound="OCCC1CN(Cc2ccccc2-c2ccco2)CCN1C1CCCC1 (stereo unspecified)" uom=% measuredresult=97.6
compound=COC(=O)c1ccc(C(=O)OC)c(NC(=O)C(C)C)c1 uom=% measuredresult=102
compound=N/C(=N\OC(=O)CCCOc1ccc(Cl)cc1Cl)c1ccncc1 uom=% measuredresult=110
compound="CC(C)CN1CCN(Cc2cccn2-c2ccccn2)CC1CCO (stereo unspecified)" uom=% measuredresult=113
compound=CSCC[C@H](NC(=O)Nc1ccc(C)cc1C)C(=O)O uom=% measuredresult=103
compound="Cc1cccc(C)c1NC(=O)C1CCCCN1C (stereo unspecified)" uom=% measuredresult=104
compound=Cn1c(=O)c(C(=O)NCCO)c(O)c2ccccc21 uom=% measuredresult=105
compound=CCOC(=O)C1=C[C@]2(CC)CCCN3CCc4c(n1c1ccccc41)[C@@H]32 uom=% measuredresult=107
compound="CC(=O)C1=C(Nc2ccc(C)cc2)CC(C)(O)C(C(C)=O)C1c1ccco1 (stereo unspecified)" uom=% measuredresult=104
compound=C[C@]12CCC(=O)C=C1[C@H](O)C[C@@H]1[C@@H]2[C@@H](O)C[C@@]2(C)[C@H]1CC[C@]2(O)C(=O)CO uom=% measuredresult=105
compound="CC1(C)CC(CNCCC(c2ccc(F)cc2)c2ccco2)CCO1 (stereo unspecified)" uom=% measuredresult=110
compound=O=C(Cc1ccccc1[N+](=O)[O-])NCCCN1CCOCC1 uom=% measuredresult=101
compound="CCCC(CCC)C(=O)OC1C[C@H]2CC[C@@H](C1)[N+]2(C)C (stereo partly specified)" uom=% measuredresult=132
compound=Cc1cc(C)cc(Nc2nc3c([nH]2)c(=O)n(C)c(=O)n3C)c1 uom=% measuredresult=105
compound=O=C(Nc1ccc(F)c([N+](=O)[O-])c1)c1ccc2c(c1)OCCO2 uom=% measuredresult=103
compound="O=C1OC(Nc2ccc3c(c2)OCO3)c2ccccc21 (stereo unspecified)" uom=% measuredresult=105
compound=COc1ccccc1OCC(=O)O uom=% measuredresult=107
compound=O=C(O)/C=C/c1cccc(OCc2ccccc2)c1 uom=% measuredresult=105
compound=S=C(NCc1ccccc1)NCc1cccc(CNC(=S)NCc2ccccc2)c1 uom=% measuredresult=98.6
compound=COc1cc(CNCc2ccc(OC)c(OC)c2OC)cc(OC)c1 uom=% measuredresult=110
compound="CN(CCO)CC(O)Cn1cnc2c1c(=O)n(C)c(=O)n2C (stereo unspecified) (tested in a mixture with another compound)" uom=% measuredresult=109
compound=c1cc(-c2ccncc2)ccn1 uom=% measuredresult=95.2
compound=CC(=O)c1cccc2c(O)c(C3=Nc4ccccc4C3=O)[nH]c12 uom=% measuredresult=118
compound="CCOC(=O)C1C2C=CC3(CN(c4ccc(Cl)c(F)c4)C(=O)C13)O2 (stereo unspecified)" uom=% measuredresult=99.3
compound=O=C(NC(=S)Nc1nc(-c2ccccc2)cs1)c1ccco1 uom=% measuredresult=132
compound=Cc1ccc(S(=O)(=O)N[C@@H](C)C(=O)N2CCC(C(=O)N3CCC[C@H]3C(=O)O)CC2)cc1 uom=% measuredresult=129
compound=Cn1c(=O)c2[nH]cnc2n(C)c1=O uom=% measuredresult=133
compound=Cc1ccc(/C=N/Nc2nc(C(C)(C)C)cs2)o1 uom=% measuredresult=106
compound=COc1ccc(/C=C\c2cc(OC)c(OC)cc2CC[N+](C)(C)C)cc1OC uom=% measuredresult=102
compound=CC1=C(C)C(=O)C(CCCCC#CCCCC#CCO)=C(C)C1=O uom=% measuredresult=99.6
compound=CCc1nc(N)nc(N)c1-c1ccc(Cl)cc1 uom=% measuredresult=112
compound=Cc1cc(/C=N/O)c(C)n1-c1ccc(Br)cc1 uom=% measuredresult=101
compound=Cc1nc(-c2coc3c(CN(C)C)c(O)ccc3c2=O)cs1 uom=% measuredresult=131
compound=Nc1nc(Cl)nc2c1ncn2[C@@H]1O[C@H](CO)[C@@H](O)[C@H]1O uom=% measuredresult=128
compound=Cc1ccc2[nH]c3c(c2c1)CCNC3=O uom=% measuredresult=95.9
compound=Cn1cc(CN2CCN(CCO)CC2)c(-c2ccc(Oc3ccccc3)cc2)n1 uom=% measuredresult=102
compound=C=C(C)Cn1c(NCCOC)nc2c1c(=O)[nH]c(=O)n2C uom=% measuredresult=112
compound="COc1ccc(C2NC(C(=O)O)Cc3c2[nH]c2ccccc32)cc1CN1CCN(c2ccc(F)cc2)CC1 (stereo unspecified)" uom=% measuredresult=98.3
compound=Cc1ncc(CN2CCC(CO)(CCc3ccccc3)CC2)s1 uom=% measuredresult=111
compound=NC(N)=NC(=O)Cc1c(Cl)cccc1Cl uom=% measuredresult=110
compound=O=c1c2[nH]c3ccccc3c2ncn1CCC1=CCCCC1 uom=% measuredresult=127
compound=C[N+](C)(C)CCCC(=O)c1ccc2c(c1)OCO2 uom=% measuredresult=111

---

- protocolSummary: Nile Red efflux blockade in pump-expressing yeast – validation compound set, multiplex, phenotypic, pilot screen (AID 588506);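 note: Nile Red retained in cells so higher fluorescence means more efflux inhibition; 0 = negative control wells and 1 = enniatin B 25 µM full block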
- testSettings: S. cerevisiae pump-expressing triplex, Nile Red efflux flow cytometry; at 10 µM; stronger effect = higher value; the pumps come from Candida albicans
assayEndpoint: efflux inhibition (fraction of control)

compound=CCCn1c(=O)c2[nH]c(C3CCCC3)nc2n(CCC)c1=O measuredresult=-0.13
compound=N#CCC(N)=C(C#N)C#N measuredresult=-0.02
compound=CC1(C)Cc2ccccc2-c2n[nH]c(=S)n21 measuredresult=0.19
compound="COc1ccc2c(c1OC)C(C1c3c(cc4c(c3OC)OCO4)CCN1C)OC2=O (centres undefined)" measuredresult=0.02
compound=COc1ccc(-c2cc(C(=O)N3CCOCC3)c3cc(C)ccc3n2)cc1 measuredresult=-0.09
compound="COc1ccc(C(=O)CC2OC(=O)c3c2ccc(OC)c3OC)cc1 (centres undefined)" measuredresult=-0.01
compound=COc1cc(CO)ccc1OCc1nnnn1-c1ccc(C)cc1 measuredresult=0.64
compound="Cc1ccc2c(c1)C1(C(=O)N2)N2CCCC2C(C(=O)c2ccc3ccccc3c2)C12C(=O)Nc1ccccc12 (centres undefined)" measuredresult=0.24
compound=Cc1ccccc1C(=O)NCC(=O)O measuredresult=0.31
compound="COc1ccccc1OCC(O)COC(N)=O (centres undefined)" measuredresult=0.01
compound=COc1cc2cc(C)nc(Cc3cccc4ccccc34)c2cc1OC measuredresult=0.04
compound=OC(CCN1CCCCC1)(c1ccccc1)c1ccccc1 measuredresult=-0.24
compound=O=C1C(=O)c2ccccc2C(O)=C1c1ccccc1F measuredresult=0.46
compound="COc1ccc2[nH]c3c(=O)n(/N=C/[C@H]4C(C)C=C(C)CC4C)c(=O)[nH]c3c2c1 (some centres undefined)" measuredresult=0.22
compound="Cc1onc(-c2c(Cl)cccc2Cl)c1C(=O)NC1C(=O)N2C1SC(C)(C)C2C(=O)O (centres undefined)" measuredresult=0
compound=Cc1ccc(S(=O)(=O)NC(=O)Nc2cc(C)ccc2F)cc1 measuredresult=0.64
compound="CC(C)COC(=O)C1C(=O)CC(C)(O)C(C(=O)OCC(C)C)C1c1cccnc1 (centres undefined)" measuredresult=-0.06
compound="CC(C)CN1CCN(Cc2ccc(C#CC(C)(C)O)cc2)CC1CCO (centres undefined)" measuredresult=0.34
compound=Cc1cccc(Nc2ncccc2C(=O)O)c1C measuredresult=0.08
compound=O=C(Cc1ccccc1)NNC(=O)Cc1ccccc1 measuredresult=0.27
compound=COc1ccc(CCNc2ncnc3c2[nH]c2cc(OC)c(OC)cc23)cc1OC measuredresult=-0.06
compound="COc1cccc2c1OCC1COc3c(c(=O)n(C)c(=O)n3C)C21 (centres undefined)" measuredresult=0.08
compound="Cc1cccc(C)c1NC(=O)C1CCCCN1C (centres undefined)" measuredresult=-0.01
compound=CCOC(=O)N1CCc2[nH]c3ccc(C)cc3c2C1 measuredresult=0.25

---

- protocolSummary: cytosolic pH regulators acting via V-ATPase – S. cerevisiae, pHLuorin, HTS validation (AID 504600);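 note: plate controls were DMSO for no effect and reference compound for full effect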
- testSettings: V-ATPase proton transport, at 10 µM, stronger effect = higher value
assayEndpoint: response (%)

compound="Cc1ccc2c(c1)c1c3n2CCCN(Cc2ccccc2)C3CCC1 (stereo not given)" assayendpoint=response uom=% measuredresult=-2.93
compound=C[C@]12CC[C@@H]3c4ccc(O)cc4CC[C@H]3[C@@H]1CC[C@@H]2OC(=O)CCC(=O)O assayendpoint=response uom=% measuredresult=-4.55
compound=O=C1CCCC(=O)C1=Cc1c[nH]c2ccccc12 assayendpoint=response uom=% measuredresult=5.91
compound=Oc1[nH]c2ccccc2c1C1=NCCCC1 assayendpoint=response uom=% measuredresult=1.51
compound=Cc1nnc(SCC2=C(C(=O)O)N3C(=O)[C@@H](NC(=O)Cn4cnnn4)[C@H]3SC2)s1 assayendpoint=response uom=% measuredresult=-5.74
compound=NC[C@H]1O[C@H](O[C@H]2[C@H](O)[C@@H](O[C@H]3O[C@H](CO)[C@@H](O)[C@H](N)[C@H]3O)[C@H](N)C[C@@H]2N)[C@H](N)C[C@@H]1O assayendpoint=response uom=% measuredresult=-21.1
compound="Cc1ccc2nc(C)c3c(c2c1)OC(C(C)(Cl)Br)C3 (stereo not given)" assayendpoint=response uom=% measuredresult=6.53
compound=O=C(O)c1ccccc1Nc1cccc(C(F)(F)F)c1 assayendpoint=response uom=% measuredresult=1.34
compound=Cc1ccccc1NC(=O)NCCc1c[nH]c2ccccc12 assayendpoint=response uom=% measuredresult=-3.03
compound="CC1(C)C(C=C(Cl)Cl)C1C(=O)N1CCN(Cc2ccccc2)CC1 (stereo not given)" assayendpoint=response uom=% measuredresult=-5.4
